Listing: HAS CR (HSA Conjugation Ratio) of selected compounds
Test target: human serum albumin Cys-34 (Homo sapiens)
Sequence (P02768 25-609): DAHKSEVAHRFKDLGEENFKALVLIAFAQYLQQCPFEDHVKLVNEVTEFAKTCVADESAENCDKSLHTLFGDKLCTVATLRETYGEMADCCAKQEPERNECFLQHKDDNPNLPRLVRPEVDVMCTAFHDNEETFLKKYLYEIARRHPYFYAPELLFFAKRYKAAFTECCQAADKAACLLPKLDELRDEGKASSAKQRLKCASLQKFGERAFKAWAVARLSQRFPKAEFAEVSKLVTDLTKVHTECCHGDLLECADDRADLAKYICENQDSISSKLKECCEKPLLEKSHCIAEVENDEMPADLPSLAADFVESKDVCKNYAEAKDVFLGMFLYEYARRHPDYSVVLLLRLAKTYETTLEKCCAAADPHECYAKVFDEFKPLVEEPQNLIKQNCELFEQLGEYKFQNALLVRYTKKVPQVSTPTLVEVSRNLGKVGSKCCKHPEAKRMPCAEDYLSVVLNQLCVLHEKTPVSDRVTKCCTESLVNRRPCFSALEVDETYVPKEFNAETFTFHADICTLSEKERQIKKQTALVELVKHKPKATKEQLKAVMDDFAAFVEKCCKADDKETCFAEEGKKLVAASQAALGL
Test description: Conjugation of activated disulfide-MMAE molecules to human serum albumin (Conjugate Ratio, LC/MS)
Measurement context: disulfide MMAE compound at 10 molar equivalents relative to HSA, 75 mM Tris pH 8.5, ~16 hours at room temperature
Where a SMILES comes first, the peptide text is derived from it. [ ]: non-standard residue; d: D form. The star is where a group is joined. X14 = CC(C)(COC(=O)*)SSc1nc2cc([N+](=O)[O-])ccc2[nH]1; X6 = CC(C)(COC(=O)*)SSc1nc2c([N+](=O)[O-])cccc2[nH]1; Dolaproine = CO[C@@H]([C@@H]1CCCN1)[C@@H](C)C(=O)O; X11 = CC(C)(COC(=O)*)SSc1nc2ccc(C(=O)O)cc2[nH]1; X22 = CC(C)(COC(=O)*)SSc1nc2cccc(C(=O)O)c2[nH]1; Dil = CC[C@H](C)[C@H](NC)[C@@H](CC(=O)O)OC; X16 = CN(C)C(=O)c1cnccc1SSC(C)(C)COC(=O)*; X4 = CC(C)(COC(=O)*)SSc1nc2ncnc(N)c2[nH]1; X10 = CC(C)(COC(=O)*)SSc1nc2ncncc2[nH]1; X12 = Cn1c(C(=O)O)cnc1SSC(C)(C)COC(=O)*; X19 = Cn1cc(C(=O)O)nc1SSC(C)(C)COC(=O)*; X5 = CC(C)(COC(=O)*)SSc1nc2ncccc2[nH]1; X7 = CC(C)(COC(=O)*)SSc1nc2ccccc2[nH]1; X2 = C[C@@H](N*)[C@@H](O)c1ccccc1; X9 = CC(C)(COC(=O)*)SSc1nnn[nH]1; X20 = Cn1cnnc1SSC(C)(C)COC(=O)*; X1 = Cn1nnnc1SSC(C)(C)COC(=O)*; NMeV = CN[C@H](C(=O)O)C(C)C
Readout type: HAS CR (HSA Conjugation Ratio)

{"Compound": "CC[C@H](C)[C@@H]([C@@H](CC(=O)N1CCC[C@H]1[C@H](OC)[C@@H](C)C(=O)N[C@H](C)[C@@H](O)c1ccccc1)OC)N(C)C(=O)[C@@H](NC(=O)[C@H](C(C)C)N(C)C(=O)OCC(C)(C)SSc1nc2cc([N+](=O)[O-])ccc2[nH]1)C(C)C (X14-[NMeV]V[Dil][Dolaproine]-X2)", "Measured value": 0.69}
{"Compound": "CC[C@H](C)[C@@H]([C@@H](CC(=O)N1CCC[C@H]1[C@H](OC)[C@@H](C)C(=O)N[C@H](C)[C@@H](O)c1ccccc1)OC)N(C)C(=O)[C@@H](NC(=O)[C@H](C(C)C)N(C)C(=O)OCC(C)(C)SSc1nc2ccccc2[nH]1)C(C)C (X7-[NMeV]V[Dil][Dolaproine]-X2)", "Measured value": 0.52}
{"Compound": "CC[C@H](C)[C@@H]([C@@H](CC(=O)N1CCC[C@H]1[C@H](OC)[C@@H](C)C(=O)N[C@H](C)[C@@H](O)c1ccccc1)OC)N(C)C(=O)[C@@H](NC(=O)[C@H](C(C)C)N(C)C(=O)OCC(C)(C)SSc1nc(C(=O)O)cn1C)C(C)C (X19-[NMeV]V[Dil][Dolaproine]-X2)", "Measured value": 0.38}
{"Compound": "CC[C@H](C)[C@@H]([C@@H](CC(=O)N1CCC[C@H]1[C@H](OC)[C@@H](C)C(=O)N[C@H](C)[C@@H](O)c1ccccc1)OC)N(C)C(=O)[C@@H](NC(=O)[C@H](C(C)C)N(C)C(=O)OCC(C)(C)SSc1nc2ncnc(N)c2[nH]1)C(C)C (X4-[NMeV]V[Dil][Dolaproine]-X2)", "Measured value": 0.23}
{"Compound": "CC[C@H](C)[C@@H]([C@@H](CC(=O)N1CCC[C@H]1[C@H](OC)[C@@H](C)C(=O)N[C@H](C)[C@@H](O)c1ccccc1)OC)N(C)C(=O)[C@@H](NC(=O)[C@H](C(C)C)N(C)C(=O)OCC(C)(C)SSc1ccncc1C(=O)N(C)C)C(C)C (X16-[NMeV]V[Dil][Dolaproine]-X2)", "Measured value": 0.22}
{"Compound": "CC[C@H](C)[C@@H]([C@@H](CC(=O)N1CCC[C@H]1[C@H](OC)[C@@H](C)C(=O)N[C@H](C)[C@@H](O)c1ccccc1)OC)N(C)C(=O)[C@@H](NC(=O)[C@H](C(C)C)N(C)C(=O)OCC(C)(C)SSc1nc2ccc(C(=O)O)cc2[nH]1)C(C)C (X11-[NMeV]V[Dil][Dolaproine]-X2)", "Measured value": 0.64}
{"Compound": "CC[C@H](C)[C@@H]([C@@H](CC(=O)N1CCC[C@H]1[C@H](OC)[C@@H](C)C(=O)N[C@H](C)[C@@H](O)c1ccccc1)OC)N(C)C(=O)[C@@H](NC(=O)[C@H](C(C)C)N(C)C(=O)OCC(C)(C)SSc1nnnn1C)C(C)C (X1-[NMeV]V[Dil][Dolaproine]-X2)", "Measured value": 0.86}
{"Compound": "CC[C@H](C)[C@@H]([C@@H](CC(=O)N1CCC[C@H]1[C@H](OC)[C@@H](C)C(=O)N[C@H](C)[C@@H](O)c1ccccc1)OC)N(C)C(=O)[C@@H](NC(=O)[C@H](C(C)C)N(C)C(=O)OCC(C)(C)SSc1nncn1C)C(C)C (X20-[NMeV]V[Dil][Dolaproine]-X2)", "Measured value": 0.66}
{"Compound": "CC[C@H](C)[C@@H]([C@@H](CC(=O)N1CCC[C@H]1[C@H](OC)[C@@H](C)C(=O)N[C@H](C)[C@@H](O)c1ccccc1)OC)N(C)C(=O)[C@@H](NC(=O)[C@H](C(C)C)N(C)C(=O)OCC(C)(C)SSc1nc2cccc(C(=O)O)c2[nH]1)C(C)C (X22-[NMeV]V[Dil][Dolaproine]-X2)", "Measured value": 0.34}
{"Compound": "CC[C@H](C)[C@@H]([C@@H](CC(=O)N1CCC[C@H]1[C@H](OC)[C@@H](C)C(=O)N[C@H](C)[C@@H](O)c1ccccc1)OC)N(C)C(=O)[C@@H](NC(=O)[C@H](C(C)C)N(C)C(=O)OCC(C)(C)SSc1nc2c([N+](=O)[O-])cccc2[nH]1)C(C)C (X6-[NMeV]V[Dil][Dolaproine]-X2)", "Measured value": 0.65}
{"Compound": "CC[C@H](C)[C@@H]([C@@H](CC(=O)N1CCC[C@H]1[C@H](OC)[C@@H](C)C(=O)N[C@H](C)[C@@H](O)c1ccccc1)OC)N(C)C(=O)[C@@H](NC(=O)[C@H](C(C)C)N(C)C(=O)OCC(C)(C)SSc1nc2ncncc2[nH]1)C(C)C (X10-[NMeV]V[Dil][Dolaproine]-X2)", "Measured value": 0.6}
{"Compound": "CC[C@H](C)[C@@H]([C@@H](CC(=O)N1CCC[C@H]1[C@H](OC)[C@@H](C)C(=O)N[C@H](C)[C@@H](O)c1ccccc1)OC)N(C)C(=O)[C@@H](NC(=O)[C@H](C(C)C)N(C)C(=O)OCC(C)(C)SSc1ncc(C(=O)O)n1C)C(C)C (X12-[NMeV]V[Dil][Dolaproine]-X2)", "Measured value": 0.55}
{"Compound": "CC[C@H](C)[C@@H]([C@@H](CC(=O)N1CCC[C@H]1[C@H](OC)[C@@H](C)C(=O)N[C@H](C)[C@@H](O)c1ccccc1)OC)N(C)C(=O)[C@@H](NC(=O)[C@H](C(C)C)N(C)C(=O)OCC(C)(C)SSc1nnn[nH]1)C(C)C (X9-[NMeV]V[Dil][Dolaproine]-X2)", "Measured value": 0.09}
{"Compound": "CC[C@H](C)[C@@H]([C@@H](CC(=O)N1CCC[C@H]1[C@H](OC)[C@@H](C)C(=O)N[C@H](C)[C@@H](O)c1ccccc1)OC)N(C)C(=O)[C@@H](NC(=O)[C@H](C(C)C)N(C)C(=O)OCC(C)(C)SSc1nc2ncccc2[nH]1)C(C)C (X5-[NMeV]V[Dil][Dolaproine]-X2)", "Measured value": 0.84}
